tested.system: T1, human C1s (human, UniProt P09871 16-688)
T1 construct: also called hC1s; serum-derived human C1s (CompTech)
T1 sequence: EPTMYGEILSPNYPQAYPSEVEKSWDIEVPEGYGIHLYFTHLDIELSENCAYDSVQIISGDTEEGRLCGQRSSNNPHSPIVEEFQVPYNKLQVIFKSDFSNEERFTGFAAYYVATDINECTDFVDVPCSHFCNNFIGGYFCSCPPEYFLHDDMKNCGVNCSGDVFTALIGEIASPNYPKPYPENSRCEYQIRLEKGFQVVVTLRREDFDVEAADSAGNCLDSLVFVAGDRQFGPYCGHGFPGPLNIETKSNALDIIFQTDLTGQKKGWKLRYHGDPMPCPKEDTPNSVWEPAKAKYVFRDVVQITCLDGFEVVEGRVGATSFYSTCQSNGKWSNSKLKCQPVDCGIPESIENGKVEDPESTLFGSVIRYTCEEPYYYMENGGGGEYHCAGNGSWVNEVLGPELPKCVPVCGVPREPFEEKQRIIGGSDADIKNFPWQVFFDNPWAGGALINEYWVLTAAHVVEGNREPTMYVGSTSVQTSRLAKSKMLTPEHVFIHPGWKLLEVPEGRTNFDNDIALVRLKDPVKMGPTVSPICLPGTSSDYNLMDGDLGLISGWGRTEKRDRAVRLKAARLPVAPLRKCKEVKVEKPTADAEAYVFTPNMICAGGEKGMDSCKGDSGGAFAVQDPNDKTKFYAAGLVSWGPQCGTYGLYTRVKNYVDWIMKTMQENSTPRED
protocol.summary: SPR, Ab captured; pH 7.4, 1.2 mM Ca
reported.endpoint: Kd (nM)
Numbers only, in nM.

Check out these entries, answers already filled in.
C1_IPN92H0117-SG4GK/IPN93L0024-SK1 (antibody, human IgG4 S228P, kappa, name in Kabat numbering, V domains shown, also called IPN92H0117/IPN93L0024) VH: EVMLVESGGGLVKPGGSLRLSCAASGFTFSNYAMSWVRQAPGKGLEWVATISQGGSHTYYLDSVKGRFTISRDNSKDTLYLQMNSLRAEDTALYYCARLFTGHAMDYWGQGTLVTVSS VL: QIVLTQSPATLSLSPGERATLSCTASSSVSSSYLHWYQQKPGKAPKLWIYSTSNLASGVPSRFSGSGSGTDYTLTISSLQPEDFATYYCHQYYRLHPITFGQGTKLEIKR = 3.41
C1_IPN92H0282-SG4GK/IPN93L0024-SK1 (antibody, human IgG4 S228P, kappa, name in Kabat numbering, V domains shown, also called IPN92H0282/IPN93L0024) VH: EVMLVESGGGLVKPGGSLRLSCAASGFTFSNYAMSWVRQAPGKGLEWVATISSGGSHTYELDSVDERFTISRDNSKDTLYLQMNSLRAEDTALYYCARLFTKHAMDYWGQGTLVTVSS VL: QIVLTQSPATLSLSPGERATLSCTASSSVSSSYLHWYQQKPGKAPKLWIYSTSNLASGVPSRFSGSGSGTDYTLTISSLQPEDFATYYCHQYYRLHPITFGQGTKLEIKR = 1.65
C1_IPN92H0159-SG4GK/IPN93L0024-SK1 (antibody, human IgG4 S228P, kappa, name in Kabat numbering, V domains shown, also called IPN92H0159/IPN93L0024) VH: EVMLVESGGGLVKPGGSLRLSCAASGFTFSNYAMSWVRQAPGKGLEWVATISSGGSHTYDLDSVKGRFTISRDNSKDTLYLQMNSLRAEDTALYYCARLFTGHAMDYWGQGTLVTVSS VL: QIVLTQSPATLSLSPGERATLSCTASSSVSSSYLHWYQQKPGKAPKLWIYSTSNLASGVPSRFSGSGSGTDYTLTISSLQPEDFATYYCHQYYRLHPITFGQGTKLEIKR = 2.06

Dear reader, for each entry below, please note its Kd.
1. C1_IPN92H0166-SG4GK/IPN93L0024-SK1 (antibody, human IgG4 S228P, kappa, name in Kabat numbering, V domains shown, also called IPN92H0166/IPN93L0024) VH: EVMLVESGGGLVKPGGSLRLSCAASGFTFSNYAMSWVRQAPGKGLEWVATISSGGSHTYYEDSVKGRFTISRDNSKDTLYLQMNSLRAEDTALYYCARLFTGHAMDYWGQGTLVTVSS VL: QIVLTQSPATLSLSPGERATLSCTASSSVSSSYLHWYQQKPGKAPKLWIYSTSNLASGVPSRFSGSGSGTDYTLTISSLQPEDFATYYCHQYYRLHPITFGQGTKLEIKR
2. C1_IPN92H0033-SG4GK/IPN93L0090-SK1 (antibody, human IgG4 S228P, kappa, name in Kabat numbering, V domains shown, also called IPN92H0033/IPN93L0090) VH: EVMLVESGGGLVKPGGSLRLSCAASGFTFSNYAMSWVRQAPGKGLEWVATISSGGSHTYYLDSVKGRFTISRDNSKDTLYLQMNSLRAEDTALYYCARLFTGHAMDYWGQGTLVTVSS VL: QIVLTQSPATLSLSPGERATLSCTASSSVSSSKLHWYQQKPGKAPKLWIYSTSNLASGVPSRFSGSGSGTDYTLTISSLQPEDFATYYCHQYYRLHPITFGQGTKLEIKR

A.
1.76
1.4
